Data origin: patent US11331299B2

Target: MLL2(h) complex
Experiment: Epigenetic enzyme assay, Methyltransferases (MTs)
Format: biochemical, human
Conditions: read-out: Reference IC50
endpoint.label: IC50 (µM)

1) Nc1ncnc2c1ncn2[C@@H]1O[C@H](CSCC[C@H](N)C(=O)O)[C@@H](O)[C@H]1O; 24

---

Tested on: 43 cancer cell lines and one normal cell line
Test: In vitro cell viability assay (intracellular ATP, 72 hour)
Assay type: cell-based
Conditions: SK-OV-3 (Ovarian Cancer); 10 μM
endpoint.label: % Cell growth (%)

1) CC(C)=CCC[C@H](C)[C@@H]1CC[C@@H](C)c2c1cc(C)c(O)c2O [Compound 4, 7,8-dihydroxyserrulat-14-ene]; 74
2) CC(C)=CCC[C@@H]1C(O)Oc2c(C)cc(O)c3c2[C@H]1CC[C@H]3C (stereo partly shown); 82
3) CC(C)=CCC[C@@H]1COc2c(C)cc(O)c3c2[C@H]1CC[C@H]3C [Compound 3, 5,18-epoxy-8-hydroxyserrulat-14-ene]; 98
4) CC(C)=CCC[C@H](CO)[C@@H]1CC[C@@H](C)c2c1cc(C)c(O)c2O [Compound 1, 7,8,18-trihydroxyserrulat-14-ene]; −35

---

Biological target: ATAD2B (h) bromodomain (Homo sapiens, UniProt Q9ULI0)
Construct: ATAD2B bromodomain
Sequence (Q9ULI0 951-1066 limits assumed): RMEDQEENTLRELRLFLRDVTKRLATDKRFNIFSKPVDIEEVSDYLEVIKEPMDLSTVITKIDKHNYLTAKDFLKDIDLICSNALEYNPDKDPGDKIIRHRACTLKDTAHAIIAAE
Experiment: Epigenetic binding assay, Bromodomain
Details: Table 4; read-out: Reference IC50
Where a name gives a salt, the structure may show the parent alone.
endpoint.label: IC50 (µM)

1) Cc1cc(/N=N/c2cc(S(=O)(=O)O)c(C)cc2C)c(N)cc1O [Ischemin sodium salt, reference compound]; 76.6

---

Molecular target: enzymes (Bioprint panel) (Homo sapiens)
Sequence (O00408 other isoform, or with tags, fused parts or gaps): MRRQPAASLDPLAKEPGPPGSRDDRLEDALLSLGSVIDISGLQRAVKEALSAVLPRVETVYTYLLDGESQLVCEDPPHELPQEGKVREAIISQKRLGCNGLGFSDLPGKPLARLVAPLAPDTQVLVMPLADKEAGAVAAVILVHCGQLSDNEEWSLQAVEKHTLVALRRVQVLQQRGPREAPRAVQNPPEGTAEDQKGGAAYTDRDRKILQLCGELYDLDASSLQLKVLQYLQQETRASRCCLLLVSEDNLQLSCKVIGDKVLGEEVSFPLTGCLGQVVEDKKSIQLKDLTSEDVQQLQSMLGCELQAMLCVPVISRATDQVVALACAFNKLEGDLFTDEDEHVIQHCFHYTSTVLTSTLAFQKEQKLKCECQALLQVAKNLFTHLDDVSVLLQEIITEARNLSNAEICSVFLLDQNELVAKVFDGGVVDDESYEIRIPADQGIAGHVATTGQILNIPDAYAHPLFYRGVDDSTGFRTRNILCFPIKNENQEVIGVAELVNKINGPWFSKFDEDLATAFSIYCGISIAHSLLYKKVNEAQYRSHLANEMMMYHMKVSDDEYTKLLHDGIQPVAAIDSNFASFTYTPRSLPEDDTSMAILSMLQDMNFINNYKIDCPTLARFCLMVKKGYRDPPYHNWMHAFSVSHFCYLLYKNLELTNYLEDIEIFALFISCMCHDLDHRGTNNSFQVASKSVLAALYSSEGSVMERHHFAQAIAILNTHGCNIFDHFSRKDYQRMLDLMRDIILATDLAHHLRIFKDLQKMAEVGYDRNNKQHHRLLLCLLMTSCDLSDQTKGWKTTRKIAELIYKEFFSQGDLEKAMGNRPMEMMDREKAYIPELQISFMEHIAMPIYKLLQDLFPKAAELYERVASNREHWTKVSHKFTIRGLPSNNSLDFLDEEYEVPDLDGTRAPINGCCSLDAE
pIC50: −log10 of the molar value.
endpoint.label: pIC50

1. CCCCCC[C@@H]([C@@H](C)O)n1cnc2c(N)ncnc21 (racemic); 5.92

---

Test system: 280 human cancer cell lines
Assay: OncoPanel cell proliferation assay (10-day)
Format: cell-based
Conditions: Homo sapiens, U138-MG, U-138MG, CNS - Glioma; read-out: Cell Count EC50
Readings of EC50 for the listed molecules
endpoint.label: EC50

1) CC(C)=CCC[C@@H]1C(O)Oc2c(C)cc(O)c3c2[C@H]1CC[C@H]3C (stereo partly drawn) [Compound 2, 5,18-epoxyserrulat-14-en-8,18-diol]; > 30 µM
2) CC(C)=CCC[C@H](CO)[C@@H]1CC[C@@H](C)c2c1cc(C)c(O)c2O [Compound 1, 7,8,18-trihydroxyserrulat-14-ene]; 6.29 µM
3) CC(C)=CCC[C@H](C)[C@@H]1CC[C@@H](C)c2c1cc(C)c(O)c2O [Compound 4, 7,8-dihydroxyserrulat-14-ene]; 25 µM

---

Test system: 280 human cancer cell lines
Assay: OncoPanel cell proliferation assay (10-day)
Assay type: cell-based
Settings: Homo sapiens, HuCCT-1, HuCCT1, Liver; read-out: Cell Count EC50
endpoint.label: EC50 (µM)

1. CC(C)=CCC[C@H](C)[C@@H]1CC[C@@H](C)c2c1cc(C)c(O)c2O [Compound 4, 7,8-dihydroxyserrulat-14-ene]; 24.8
2. CC(C)=CCC[C@@H]1C(O)Oc2c(C)cc(O)c3c2[C@H]1CC[C@H]3C (stereo partly drawn); 22.6
3. CC(C)=CCC[C@H](CO)[C@@H]1CC[C@@H](C)c2c1cc(C)c(O)c2O [Compound 1, 7,8,18-trihydroxyserrulat-14-ene]; 2.48
